target: T1, recombinant eukaryotic GRP78 protein (Prospec, USA) (UniProt P11021 19-654, limits assumed); assay: SPR (BIAcore 2000), GRP78 amine-coupled on a CM4 chip, peptide as analyte at 0.313-10 mM, 25 C, HBS-EP
T1 construct: Immobilised by amine coupling on a CM4 chip; also called Glucose-regulated protein 78 kDa; Glucose Regulatory Protein-78
T1 sequence (P11021 19-654 limits assumed): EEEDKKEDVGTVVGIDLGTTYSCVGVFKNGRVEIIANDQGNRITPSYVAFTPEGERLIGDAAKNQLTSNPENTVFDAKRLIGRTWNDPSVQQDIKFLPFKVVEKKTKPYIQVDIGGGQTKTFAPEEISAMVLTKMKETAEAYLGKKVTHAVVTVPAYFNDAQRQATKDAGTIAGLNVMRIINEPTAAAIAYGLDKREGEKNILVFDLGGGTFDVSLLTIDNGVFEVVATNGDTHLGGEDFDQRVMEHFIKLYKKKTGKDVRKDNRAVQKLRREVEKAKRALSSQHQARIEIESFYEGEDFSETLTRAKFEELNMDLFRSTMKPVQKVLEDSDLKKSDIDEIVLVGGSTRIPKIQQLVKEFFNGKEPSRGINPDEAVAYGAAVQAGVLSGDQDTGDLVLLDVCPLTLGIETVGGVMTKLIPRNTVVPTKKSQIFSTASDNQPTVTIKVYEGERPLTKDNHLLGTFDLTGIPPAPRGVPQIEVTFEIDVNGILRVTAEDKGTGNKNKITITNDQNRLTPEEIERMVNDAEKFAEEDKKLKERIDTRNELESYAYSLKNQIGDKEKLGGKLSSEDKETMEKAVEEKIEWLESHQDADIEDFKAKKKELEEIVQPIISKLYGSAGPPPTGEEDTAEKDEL
Assay readout: pKd
Quick note: pKd means taking -log10 of the concentration in moles per liter.

Can you look up the measured pKd of GIRLRG (Unconjugated synthetic hexapeptide, used as the analyte in SPR and as the ligand in the molecular model; also called lead peptide) [GIRLRG (SEQ ID NO:1) peptide] for me?
2.67
